- measurement-target: Bile acid receptor (Homo sapiens) (UniProt Q96RI1)
- Sequence (Q96RI1 whole entry, looked up): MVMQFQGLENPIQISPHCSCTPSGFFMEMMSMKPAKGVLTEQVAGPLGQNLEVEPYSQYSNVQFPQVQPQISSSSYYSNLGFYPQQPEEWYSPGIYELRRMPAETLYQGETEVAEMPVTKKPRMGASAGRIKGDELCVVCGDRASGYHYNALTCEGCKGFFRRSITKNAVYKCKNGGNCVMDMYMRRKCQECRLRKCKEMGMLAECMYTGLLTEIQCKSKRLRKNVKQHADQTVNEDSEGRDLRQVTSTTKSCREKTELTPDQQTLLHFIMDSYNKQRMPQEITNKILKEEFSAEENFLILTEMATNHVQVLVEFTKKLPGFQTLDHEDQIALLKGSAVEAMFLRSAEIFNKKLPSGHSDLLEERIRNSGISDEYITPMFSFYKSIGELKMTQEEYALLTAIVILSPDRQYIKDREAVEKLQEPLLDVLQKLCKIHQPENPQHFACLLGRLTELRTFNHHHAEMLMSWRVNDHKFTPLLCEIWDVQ
- method-notes: qHTS assay to identify small molecule antagonists of the farnesoid-X-receptor (FXR) signaling pathway (AID 743217)
- condition-notes: HEK293T FXR-UAS-bla, beta-lactamase ratio, CDCA-stimulated, 16 h; series mostly up to 62.6 µM
Results filed as inconclusive are left out. Activity calls are given as the source filed them. Calls come from the whole dose curve; as a rule, active = well fitted inhibition curve with a large enough effect in the signal ratio in the repeat runs (not every such curve was filed as active); inconclusive = weak or mixed curves, or effect the other way; inactive = no such curve, though single readings can be large or run the other way; the % refers to the signal ratio.
# output must be one of active, inactive

Solved entries (count: 4):
CC1(C)CCC(C)(C)c2cc(C(=O)Nc3ccc(C(=O)O)cc3)ccc21	inactive
O=c1cccccc1O	inactive
Cc1cc(O)c2ccccc2c1O	active
N#CC1(c2ccc(F)cc2)CCC(=O)CC1	inactive

Lab note: next compound to report on.
Asked: Returns: the outcome recorded for CSc1ccc2c(c1)C(N1CCN(C)CC1)Cc1ccccc1S2 (stereo not drawn) in this assay.
Given back: inactive

----------
- method-notes: qHTS assay to identify small molecule agonists of the AP-1 signaling pathway (AID 1159526)
- condition-notes: ME-180 (cervical carcinoma) AP-1-bla reporter, beta-lactamase FRET ratio, 5 h; series mostly up to 76.8 µM
Records with an inconclusive call do not appear. Calls of active or inactive are those of the source. Calls follow the shape of the full dose curve.
# output must be one of Y for active, N for inactive

Solved entries (count: 8):
CCN(C(=O)N(CC)c1ccccc1)c1ccccc1	N
CN(C)[C@@H]1C(=O)C(C(N)=O)=C(O)[C@@]2(O)C(=O)C3=C(O)c4c(O)ccc(Cl)c4[C@@H](O)[C@H]3C[C@@H]12	N
O=C(O)c1c(Cl)cccc1Cl	N
Cc1cc(N)c(S(=O)(=O)O)cc1Cl	N
CCCCN(CCCC)c1ccc(C(=O)c2ccccc2C(=O)O)c(O)c1	N
O=C(Oc1ccccc1)c1ccccc1C(=O)Oc1ccccc1	N
CCCCCOC(=O)CCCC	N
CCCCCCCCCCC=O	N

Asked: Returns: the outcome recorded for O=C(c1ccc(O)cc1O)c1ccc(O)cc1O in this assay.
Given back: N

Asked: Returns: the outcome recorded for Cc1c(C)c2c(c(C)c1O)CCC(C)(COc1ccc(CC3SC(=O)NC3=O)cc1)O2 (stereo unspecified) in this assay.
Given back: N

Asked: Returns: the outcome recorded for CCC(N)(CO)CO in this assay.
Given back: N

Asked: Returns: the outcome recorded for O=C1CCCc2c1cc1ccc3cccc4ccc2c1c34 in this assay.
Given back: Y

Asked: Returns: the outcome recorded for C[C@H]1[C@H]2CC[C@H]3[C@@H]4CC=C5C[C@@H](N(C)C)CC[C@]5(C)[C@H]4CC[C@]23CN1C in this assay.
Given back: N

Asked: Returns: the outcome recorded for Cc1cccc(S(=O)(=O)O)c1C in this assay.
Given back: N

Asked: Returns: the outcome recorded for ON=C1CCCC1 in this assay.
Given back: N

Asked: Returns: the outcome recorded for COc1c(C)c2c(c(O)c1C/C=C(\C)CCC(=O)O)C(=O)OC2 in this assay.
Given back: N

Asked: Returns: the outcome recorded for O=C(O)c1ccc(Cl)c(Cl)c1 in this assay.
Given back: N

Asked: Returns: the outcome recorded for O=C(c1ccc(F)cc1)C1CCN(CCn2c(=O)[nH]c3ccccc3c2=O)CC1 in this assay.
Given back: N

Asked: Returns: the outcome recorded for CSc1cnc(C)cn1 in this assay.
Given back: N

Asked: Returns: the outcome recorded for CC(=O)S[C@@H]1CC2=CC(=O)CC[C@]2(C)[C@H]2CC[C@@]3(C)[C@@H](CC[C@@]34CCC(=O)O4)[C@H]12 in this assay.
Given back: N

Asked: Returns: the outcome recorded for CC(=O)OCC(C)OC(C)=O (stereo unspecified) in this assay.
Given back: N

Asked: Returns: the outcome recorded for CC[C@H](c1ccc(O)cc1)[C@@H](CC)c1ccc(O)cc1 in this assay.
Given back: N

Asked: Returns: the outcome recorded for CCCCCCCC(=O)[O-].CCCCCCCC(=O)[O-].[Zn+2] in this assay.
Given back: N

Asked: Returns: the outcome recorded for COc1cccc(N)c1 in this assay.
Given back: N

Asked: Returns: the outcome recorded for CC(=O)SC[C@@H](Cc1ccccc1)C(=O)NCC(=O)OCc1ccccc1 in this assay.
Given back: N

Asked: Returns: the outcome recorded for OCCCCCCCCCCCCBr in this assay.
Given back: N
